Tested on: OVCAR-5
Method description: NCI tumour cell line growth inhibition, 48 h
Activity calls are given as the source filed them. Cut-off read from the data, not from the text of the source: active = GI50 up to about 1.1 µM and inactive = higher.
Outcomes: yes (1) = active, no (0) = inactive

>>> print(df.to_string())
                                   molecule  qualitative_label
0         O=C1NC(N2CCCCC2)=N/C1=C\c1ccccc1O             no (0)
1  Nc1ccc(Oc2ccc(C34CC5C6CC7(c8ccc(Oc9ccc(N)cc9)cc8)CC5C(C3)C(C7)C6C4)cc2)cc1             no (0)
2  COC(C)(C)C1=CCC(C)CC1 (stereo not given)             no (0)
3  C=C1C(=O)C=C[C@]2(C)CC[C@H]3C(=C)C(=O)O[C@@H]3[C@@H]12             no (0)
4  O=C1c2ccccc2C(=O)N1c1nc(-c2ccc(Cl)cc2)cc(N2N=C(c3ccc(Br)cc3)CC2c2ccccc2)n1 (stereo not given)            yes (1)
5        Cc1ccn2c(CCc3nnc4cc(C)ccn34)nnc2c1             no (0)
6  O=C1C=C[C@@H](COC2OC(CO)C(O)C(O)C2O)O1 (stereo not given in full)             no (0)
7  CC(C)(c1ccc(Oc2ccc(C#N)c(C#N)c2)cc1)c1ccc(Oc2ccc(C#N)c(C#N)c2)cc1             no (0)
8  COC(=O)c1ccccc1C1CN=NC12Cc1ccc3ccccc3c1C2=O (stereo not given)             no (0)
9  CC(=O)NC1C(OCc2ccccc2)OC(CO)C(O)C1OCC(=O)NC(C)C(=O)NC(CCC(=O)OCCNC(=O)c1cccc2cc3ccccc3nc12)C(N)=O (stereo not given)             no (0)
